Measured normalized RNA/DNA level without ligand (log10) by item
B1: library; a variant is named by its letters at N, in order (parent)
chain: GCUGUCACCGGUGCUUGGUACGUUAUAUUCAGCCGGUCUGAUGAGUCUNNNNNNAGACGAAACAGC

# Variants of: B1
# protocol text: normalized RNA/DNA level without ligand (relative to sTRSVctl = 100) (log10 (% of sTRSVctl)); HEK293T overexpressing SLC46A1; higher = less ribozyme self-cleavage, higher mRNA level
# test conditions: without (6R,S)-folinic acid; ligand present: no
experimental readout: normalized RNA/DNA level without ligand (log10)

variant descriptor	readout number
GACCGU	2.03
AGAUAC	1.98
CGCUCC	2.08
CCGUCU	2.04
UUCUCG	1.94
UGUGAU	1.9
AUUACC	2.02
AAUCGU	1.99
UUAGAC	2
CGCCGG	2.03
AACUCG	2
GCCGCA	2.04
UAAUUU	1.98
AUUUGU	1.95
UCGCAC	2.04
GCAGCA	2.05
AAUUUU	2.04
CACUCU	2.06
CUCCUC	2.06
GGGUUA	2.05
UCGAAG	1.74
UCUGCU	2.07
AUGUAA	1.94
AGUAAU	1.99
AUGGAA	1.92
ACGUCA	2.04
GUGAAG	1.94
UGUCCG	1.86
AUGUGC	1.97
GCGGAA	1.98
CACUAC	2.02
GGCUCU	2.09
AAGCGG	1.94
ACCUUA	2.05
UGCGCC	2.07
GGUGUC	2.05
GGUCGA	2.03
GAUCUG	2.01
GCGCCA	2.08
GUAAGG	1.95
GUACCU	2.09
UGAAGA	1.88
CCUUCA	2.07
UCUCUC	2.08
UAAGCG	1.74
AAGACU	2.01
UCGGUG	1.82
ACCUGU	2.01
UCCAGG	1.98
AGCGUA	1.97
CGAACC	2.06
AAAGGU	1.94
AAACUU	2.01
AAAUAG	1.9
UGGCGG	1.82
CAUAGC	1.99
GGAGAU	1.96
AUAAGU	1.88
UAUUCU	1.99
CGAUGA	2.01
AACUGA	2.01
GGGUUG	2.04
AGAGUA	1.94
UUAAGU	2
UAAAUG	1.75
UGUCUU	1.98
CAUUCC	2.06
UGAUUG	1.77
GCAGAA	1.94
ACUCUC	2.09
CUUGCU	2.05
UCUAGG	1.98
UAGGGC	2.01
UGAGAC	1.91
UCAGGC	2.03
UAGGCC	2.05
AACGUU	1.99
